Assay: Apparent half life in human at 150 mg, po TID administered on day 1 followed by 2-day wash out period after which dosing continued up to day 11 measured on day 11
Assay type: ADME, organism-based
Settings: in vivo, read-out: t1/2(app) (converted)
EXPERIMENTAL READOUT: half-life (h)
Output spec: scalar in h, unitless text.

Input line: Query: half-life; subject: O=C(O)c1n[nH]c2c1C[C@H]1C[C@@H]21
Output line: 11

---

Assay: Plasma clearance in dog
Type: ADME, organism-based, Canis lupus familiaris
Here the recorded clearance is given for each entry.

{"SMILES NOTATION": "O=C(O)c1n[nH]c2c1C[C@H]1C[C@@H]21", "clearance": "3.1 mL/min/kg"}

Please examine the following record next.
Input line: So what's the measured clearance for this one? C[C@@H]1[C@@H]2Cc3c(C(=O)O)n[nH]c3[C@H]12
Output line: 2.4 mL/min/kg

---

Assay: AUC (0 to 12 hrs) in human at 150 mg, po BID administered on day 1 followed by 2-day wash out period after which dosing continued up to day 11 measured on day 4
Format: ADME, organism-based
Parameters: dose 150 mg, time < 12 hr, route oral
Settings: plasma
EXPERIMENTAL READOUT: AUC at 12 h (µM·h)
Answer format: numeric, µM·h implied, no suffix.

Input line: Name the reported AUC at 12 h value associated with the molecule O=C(O)c1n[nH]c2c1C[C@H]1C[C@@H]21
Output line: 0.0803

---

Assay: Cmax in human at 150 mg, po TID administered on day 1 followed by 2-days wash out period after which dosing continued up to day 11 measured on day 11
Type: ADME, organism-based
Set-up: dose 150 mg, route oral
Conditions: in vivo
EXPERIMENTAL READOUT: Cmax

Input line: Please look up its Cmax: O=C(O)c1n[nH]c2c1C[C@H]1C[C@@H]21
Output line: 44.9 nM

---

Assay: Cmin in human at titreated dose from day 1 to 4 followed by 200 mg, po QD administered up to day 11 measured on day 11 at 12 hrs
Type: ADME, organism-based
Settings: in vivo, read-out: Cmin
EXPERIMENTAL READOUT: concentration at 12 h (nM)
Give the value in nM but do not write nM after it.

Input line: I have this compound here, O=C(O)c1n[nH]c2c1C[C@H]1C[C@@H]21 , and I need its recorded concentration at 12 h.
Output line: 0.273

---

Experiment: Drug excretion in human urine assessed as unchanged drug at 50 to 150 mg, po BID in administered on day 1 followed by 2-days wash out period after which dosing continued up to day 11
Type: ADME, organism-based
Settings: read-out: Ae
EXPERIMENTAL READOUT: dose excreted
I'd appreciate it if you included the unit after the number.

Input line: I have this compound here, O=C(O)c1n[nH]c2c1C[C@H]1C[C@@H]21 , and I need its recorded dose excreted.
Output line: 70%

---

Assay: Cmin in human at 100 mg, po BID administered on day 1 followed by 2-day wash out period after which dosing continued up to day 11 measured on day 4 at 12 hrs
Assay type: ADME, organism-based
Conditions: in vivo, read-out: Cmin
EXPERIMENTAL READOUT: concentration at 12 h

Input line: Name the recorded concentration at 12 h for O=C(O)c1n[nH]c2c1C[C@H]1C[C@@H]21 .
Output line: 0.083 nM

---

Assay: Cmax in human at 175 mg, po QID administered on day 1 followed by 2-days wash out period after which dosing continued up to day 11 measured on day 4
Assay type: ADME, organism-based
Design: dose 175 mg, route oral
Conditions: in vivo
EXPERIMENTAL READOUT: Cmax
Answer with the number, then the unit.

Input line: Cmax for O=C(O)c1n[nH]c2c1C[C@H]1C[C@@H]21 ?
Output line: 49.9 nM

---

Experiment: AUC (0 to 12 hrs) in human at 100 mg, po BID administered on day 1 followed by 2-day wash out period after which dosing continued up to day 11 measured on day 4
Format: ADME, organism-based
Parameters: time < 12 hr, dose 100 mg, route oral
Settings: plasma
EXPERIMENTAL READOUT: AUC at 12 h (nM·h)
Write down the numeric answer in nM·h and omit the unit.

Input line: Record request: AUC at 12 h value, item O=C(O)c1n[nH]c2c1C[C@H]1C[C@@H]21
Output line: 65.7

---

Assay: Cmax in human at 100 mg, po BID administered on day 1 followed by 2-day wash out period after which dosing continued up to day 11 measured on day 1
Format: ADME, organism-based
Set-up: dose 100 mg, route oral
Details: in vivo
EXPERIMENTAL READOUT: Cmax (nM)
Please reply with the bare figure in nM and do not write the unit itself.

Input line: I am curious: what Cmax value has been reported for O=C(O)c1n[nH]c2c1C[C@H]1C[C@@H]21 ?
Output line: 31.5

---

Test: Cmax in human at 100 mg, po BID administered on day 1 followed by 2-day wash out period after which dosing continued up to day 11 measured on day 4
Type: ADME, organism-based
Parameters: dose 100 mg, route oral
Details: in vivo
EXPERIMENTAL READOUT: Cmax (nM)
# number only, unit nM dropped from output

Input line: So what does the record say about Cmax for O=C(O)c1n[nH]c2c1C[C@H]1C[C@@H]21 ?
Output line: 33.1

---

Experiment: Cmax in human at 150 mg, po BID administered on day 1 followed by 2-day wash out period after which dosing continued up to day 11 measured on day 4
Assay type: ADME, organism-based
Set-up: dose 150 mg, route oral
Conditions: in vivo
EXPERIMENTAL READOUT: Cmax (nM)
Express it in nM; write the number only.

Input line: Report Cmax for O=C(O)c1n[nH]c2c1C[C@H]1C[C@@H]21 please.
Output line: 31.7

---

// values below are reported bioavailability
Assay: Oral bioavailability in dog
Assay type: ADME, organism-based, Canis lupus familiaris
Settings: in vivo
# output: bare number, implied unit %

{"SMILES NOTATION": "O=C(O)c1n[nH]c2c1C[C@H]1C[C@@H]21", "MEASUREMENT UNITS": "%", "bioavailability": 100}

Continue with the compound presented below.
Input line: // bioavailability lookup, key: C[C@@H]1[C@@H]2Cc3c(C(=O)O)n[nH]c3[C@H]12
Output line: 100

---

Assay: AUC (0 to 12 hrs) in human at 50 mg, po BID administered on day 1 followed by 2-day wash out period after which dosing continued up to day 11 measured on day 11
Type: ADME, organism-based
Parameters: dose 50 mg, time < 12 hr, route oral
Conditions: plasma
EXPERIMENTAL READOUT: AUC at 12 h

Input line: // returns reported AUC at 12 h for input O=C(O)c1n[nH]c2c1C[C@H]1C[C@@H]21
Output line: 0.0254 µM·h

---

Test: AUC (0 to 12 hrs) in human at 150 mg, po BID administered on day 1 followed by 2-day wash out period after which dosing continued up to day 11 measured on day 1
Type: ADME, organism-based
Parameters: dose 150 mg, time < 12 hr, route oral
Settings: plasma
EXPERIMENTAL READOUT: AUC at 12 h (µM·h)
# number only, unit µM·h dropped from output

Input line: What AUC at 12 h value was documented for this molecule, O=C(O)c1n[nH]c2c1C[C@H]1C[C@@H]21 ?
Output line: 0.0977

---

Assay: AUC (0 to 24 hrs) in human at titreated po dose administered from day 1 to 4 followed by 200 mg, po QD administered up to day 11 measured on day 11
Type: ADME, organism-based
Set-up: time < 24 hr, dose 200 mg, route oral
Conditions: plasma
EXPERIMENTAL READOUT: AUC at 24 h

Input line: State the recorded AUC at 24 h for this entry: O=C(O)c1n[nH]c2c1C[C@H]1C[C@@H]21
Output line: 0.119 µM·h

---

Assay: Volume of distribution in Sprague-Dawley rat at 2 mg/kg, iv
Type: ADME, organism-based
Parameters: dose 2 mg/kg, route intravenous
Conditions: in vivo
Reported values of Vd for individual entries
Number in L/kg, nothing else.

{"SMILES NOTATION": "C[C@@H]1[C@@H]2Cc3c(C(=O)O)n[nH]c3[C@H]12", "MEASUREMENT UNITS": "L/kg", "Vd": 0.53}

Could you now look at the following compound, please?
Input line: Query: Vd; subject: O=C(O)c1n[nH]c2c1C[C@H]1C[C@@H]21
Output line: 0.53

---

Assay: Cmin in human at 175 mg, po QID administered on day 1 followed by 2-days wash out period after which dosing continued up to day 11 measured on day 11 at 6 hrs
Type: ADME, organism-based
Settings: in vivo, read-out: Cmin
EXPERIMENTAL READOUT: concentration at 6 h (nM)
The response must be a number in nM with no trailing unit.

Input line: Reported concentration at 6 h, molecule O=C(O)c1n[nH]c2c1C[C@H]1C[C@@H]21 : ____
Output line: 2.86

These measurements were taken from ChEMBL document CHEMBL2057168.
